- Test system: Liver microsomes
- TEST_SUMMARY: Intrinsic clearance in human liver microsomes assessed per mg of protein at 1 uM by LC/MS analysis
- Format: ADME, Microsome

SMILES_REPRESENTATION	TESTED_SYSTEM	CLint
Cc1cc(Nc2ccc(C(F)(F)F)cc2)n2ccnc2n1	Liver microsomes	4.7 µL/min/mg

* * *

- TEST_SUMMARY: Plasma concentration in Swiss mouse at 10 mg/kg, po at 16 hrs
- Format: ADME, organism-based
- Set-up: dose 10 mg/kg, route oral

SMILES_REPRESENTATION	concentration at 16 h
Cc1cc(Nc2ccc(C(F)(F)F)cc2)n2ccnc2n1	< 3 nM
